// endpoint IC50 / system Lactoperoxidase (Bos taurus, UniProt P80025)
quantityName: IC50 (µM)

Completed entries (count: 3):
smilesString | IC50, µM
Cc1ccc(-c2cc3ccccc3c(=S)o2)cc1 | 6.2
S=c1oc(-c2ccco2)cc2ccccc12 | 17.8
O=c1oc(-c2cccc3ccccc23)cc2ccccc12 | 34.6

A = Cn1cc[nH]c1=S
B = S=c1oc(-c2ccoc2)cc2ccccc12
C = S=c1oc(-c2ccccc2)cc2ccccc12
D = S=c1oc(C2CCCCC2)cc2ccccc12
E = O=c1oc(-c2ccc(Cl)cc2)cc2ccccc12
Arrange these compounds by their IC50, starting with the largest number. Rank the items, then write their labels in that order.
E, B, C, A, D

Source listed as ChEMBL document CHEMBL3045741.
